Tested on: HBV
method: HBV inhibitory activity: HBV DNA in the culture medium of HepG2.2.15 cells by q-PCR
Type: cell-based
measurementConditions: HepG2.2.15 cells, 6 days of compound treatment, HBV DNA in culture medium by q-PCR, highest concentration 10 μM; read-out: EC50
Procedure: HBV replication inhibition by the compounds of this invention as well as cytotoxicity determination was determined in cells infected or transfected with HBV, or cells with stably integrated HBV, such as HepG2.2.15 cells (Sells et al. 1987). The method used herein is as follows. […] The HBV DAN change in the cell culture medium induced by the compounds was measured by q-PCR (quantitative polymerase chain reaction) method. […]
Listed here: items and their measured pEC50.
Value format note: pEC50 is -log10 of concentration (mol/L); just state the number.

compound	pEC50
COC(=O)C1=C(C2CCC(NC(C)=O)C2)NC(c2nccs2)=NC1c1cccc(F)c1Cl (single isomer, unassigned) [Compound 62B]	7.20
COC(=O)C1=C(C2COC(CO)C2)NC(c2nccs2)=NC1c1cccc(F)c1Cl (single isomer, unassigned) [Compound 219C]	6.75
COC(=O)C1=C(C2CCC(NS(C)(=O)=O)C2)NC(c2nccs2)=NC1c1cccc(F)c1Cl (single isomer, unassigned) [Compound 61E]	6.45

Now let's try a different one.
Name the reported pEC50 value associated with the compound CCOC(=O)C1=C(C2CCN(S(=O)(=O)C3CC(CC(=O)O)C3)CC2)NC(c2nccs2)=NC1c1ccc(F)c(F)c1Cl (centres unmarked) [Compound 482B]
7.96

----------
Here the recorded log10 of EC50 is given for each entry.
System: HBV
method: HBV inhibitory activity: HBV DNA in the culture medium of HepG2.2.15 cells by q-PCR
Type: cell-based
measurementConditions: HepG2.2.15 cells, 6 days of compound treatment, HBV DNA in culture medium by q-PCR, highest concentration 10 μM; read-out: EC50
Values below are the log10 of the recorded EC50, with nM as the unit.

HBV / log10 of EC50 / COC(=O)C1=C(C2CCC(C(=O)O)C2)NC(c2nccs2)=NC1c1ccc(F)cc1Cl (single isomer, unassigned) [Compound 72F] : value?
1.76

Enter reported log10 of EC50 observed with HBV for COC(=O)C1=C([C@H]2CC[C@H](C(=O)OC)CC2)NC(c2nccs2)=NC1c1ccc(F)cc1Cl (stereo partly drawn) [Compound 18X]
1.62

// map CCOC(=O)C1=C(C2CCN(S(=O)(=O)C3CC(C)(C(=O)O)C3)CC2)NC(c2nccs2)=NC1c1ccc(F)cc1Br (single isomer, unassigned) [Compound 282D] to recorded log10 of EC50 (system: HBV)
1.59

Query the reported log10 of EC50 for HBV; item: COC(=O)C1=C(C2CCN(S(=O)(=O)C3CC(C)(C(=O)O)C3)CC2)NC(c2nccs2)=NC1c1ccc(F)cc1Br (single isomer, unassigned) [Compound 410C]
1.20

Record lookup: for HBV, what log10 of EC50 belongs to COC(=O)C1=C(C2CCOC2)NC(c2nccs2)=NC1c1cccc(F)c1Cl (single isomer, unassigned) [Compound 74C] ?
2.40

I'm curious: which log10 of EC50 was measured for CCOC(=O)C1=C(C2CCN(S(=O)(=O)[C@H]3C[C@](C)(C(=O)O)C3)CC2)NC(c2nccs2)=NC1c1ccc(F)c(F)c1Cl (stereo partly drawn) [Compound 270A] tested on HBV?
1.08
